Molecular target: T1, GRIP1_7, Q9Y3R0
T1 sequence (Q9Y3R0 999-1096, limits assumed, looked up): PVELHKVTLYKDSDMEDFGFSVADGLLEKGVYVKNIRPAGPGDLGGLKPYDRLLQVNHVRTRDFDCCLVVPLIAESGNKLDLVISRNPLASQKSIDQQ
Assay: holdup assay
Set-up: key: below the threshold = too weak to quantify, mostly under pKd 3.1 to 4
Details: plain residues with an end cap or a label only (N-terminal biotin on a linker: ado-ado)
metric: pKd

Known pKd results, listed for orientation:
IKLETKKTKL [SLC15A2, Q16348] | below the threshold
PSVYSRSQYV [CLDN8, P56748] | below the threshold
VISSDDLTEL [CAPN6, Q9Y6Q1] | below the threshold
SQDPKKPSRV [CBY2, Q8NA61] | below the threshold
EFKQTSSFLV [JAM1, Q9Y624] | below the threshold

Exercise: Need pKd, item VKQYADVEGF [HNRNPK, P61978;P61978-2]
Key: below the threshold

Exercise: Need pKd, item NNMAFETTHF [SLC5A12, Q1EHB4]
Key: below the threshold

Exercise: Need pKd, item DFKHTKSFII [JAM2, P57087]
Key: below the threshold

Exercise: Need pKd, item HLSTRQGTCV [ATRNL1, Q5VV63]
Key: below the threshold

Exercise: Need pKd, item THREVKFTSL [CD46, P15529]
Key: below the threshold

Exercise: Need pKd, item SSSVNVSSNL [CXCR1, P25024]
Key: below the threshold

Exercise: Need pKd, item HYPASPDSWV [CTNND2, Q9UQB3]
Key: 3.75

Exercise: Need pKd, item KSRPENGTVC [TMEM178B, H3BS89]
Key: below the threshold

Exercise: Need pKd, item KKTPVSRSHL [SLC22A3, O75751]
Key: below the threshold

Exercise: Need pKd, item THHRKIHTRV [ZNF599, Q96NL3]
Key: below the threshold

Exercise: Need pKd, item DAAHHDESNC [FMNL3, Q8IVF7]
Key: below the threshold
